Assay system: T1, CTNI quality control recombinant protein (PK2-CTNI-1, 170120, produced by the applicant) (human, UniProt P19429 2-210, limits assumed)
T1 construct: also called cardiac troponin I
T1 sequence (P19429 2-210 limits assumed): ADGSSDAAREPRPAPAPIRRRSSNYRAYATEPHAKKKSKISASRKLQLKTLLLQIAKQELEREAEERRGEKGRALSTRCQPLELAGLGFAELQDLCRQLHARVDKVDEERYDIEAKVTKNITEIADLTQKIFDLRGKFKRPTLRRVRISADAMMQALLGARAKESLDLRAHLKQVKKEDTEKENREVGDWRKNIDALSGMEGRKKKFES
Test description: AMC sensor kinetics, antibody captured, cTnI analyte
Measured property: kon (M⁻¹ s⁻¹)
Kindly provide the numeric value in M⁻¹ s⁻¹ only, without the unit symbol.

Binder	Readout value
Mutation 1-23 (antibody, V domains shown, built as for Mutation 1) VH: EVQLQQSGAELVKPGASVKLSCTASGFNIKDYYMHWMKQRTEQGLDWIGRIDPEDGETKYAPEFQGKATITADTSSNTAYLQLSTLTSEDTAVYYCARYYSSYIPFVYWGQGTLVTASA VL: DVVMTQTPLSLSVSLGDQASISCRSSQSILYSNRHTYLHWYLQKPGQSPKLLIFQISNRFSGVPDRFSGSGSGTDFTLKINRVEAEDLGVYFCSQSTHIPYTFGSGTKLEIKR	695000

// query kon value for entry Mutation 1-41 (antibody, V domains shown, built as for Mutation 1) VH: EVQLQQSGAELVKPGASVKLSCTASGFNIKDYYMHWMKQRTEQGLDWIGRIDPEDGETRYAPEFQGKATITADTSSNTAYLQLSTLTSEDTAVYYCARYYSSYIPFVYWGQGTLVTASA VL: DVVMTQTPLSLSVSLGDQASISCRSSQSILYSNRHTYLHWYLQKPGQSPKLLIFQISNRFSGVPDRFSGSGSGTDFTLKINRVEAEDLGVYFCSQSTHIPYTFGSGTKLEIKR
// result 544000

meta.source: patent US20210340231A1
